Source: paper PMC3059340

# Tested System: T1, Recombinant human E-selectin/Fc chimera (human, UniProt P16581 22-556)
# T1 sequence (looked up): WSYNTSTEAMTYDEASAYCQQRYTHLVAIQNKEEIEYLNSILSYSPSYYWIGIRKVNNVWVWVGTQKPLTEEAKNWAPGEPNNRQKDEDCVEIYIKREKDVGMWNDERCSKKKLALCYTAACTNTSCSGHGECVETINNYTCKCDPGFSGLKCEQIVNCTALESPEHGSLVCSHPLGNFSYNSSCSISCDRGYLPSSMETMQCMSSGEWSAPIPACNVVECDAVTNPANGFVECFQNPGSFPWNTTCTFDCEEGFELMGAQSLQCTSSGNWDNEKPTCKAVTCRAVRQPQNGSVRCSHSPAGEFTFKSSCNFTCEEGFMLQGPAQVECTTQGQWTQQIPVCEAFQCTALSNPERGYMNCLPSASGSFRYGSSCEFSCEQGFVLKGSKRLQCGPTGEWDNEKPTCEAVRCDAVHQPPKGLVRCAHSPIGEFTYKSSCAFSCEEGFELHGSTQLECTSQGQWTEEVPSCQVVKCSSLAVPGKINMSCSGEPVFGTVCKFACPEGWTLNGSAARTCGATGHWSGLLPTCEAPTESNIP
# Method Description: SPR
Quantity: pKd
// scale note: pKd = -log10(conc_M); give the bare number

Q) Any idea what its pKd is? The binder is SETTTGTSSNSSQSTSNSGLAPNPTNATTKAAG (natural protein, UniProt P25063 27-59, looked up) [Recombinant human CD24]
A) 8.47
